Measured inhibition at 1 µM, listed per entry.
# system_tested: mouse 17β-HSD1 (Mus musculus)
# Construct: made in house; host or cells: HEK293 cells, transient transfection; 1,000 g supernatant of the cell lysate
# Sequence (P51656 whole entry): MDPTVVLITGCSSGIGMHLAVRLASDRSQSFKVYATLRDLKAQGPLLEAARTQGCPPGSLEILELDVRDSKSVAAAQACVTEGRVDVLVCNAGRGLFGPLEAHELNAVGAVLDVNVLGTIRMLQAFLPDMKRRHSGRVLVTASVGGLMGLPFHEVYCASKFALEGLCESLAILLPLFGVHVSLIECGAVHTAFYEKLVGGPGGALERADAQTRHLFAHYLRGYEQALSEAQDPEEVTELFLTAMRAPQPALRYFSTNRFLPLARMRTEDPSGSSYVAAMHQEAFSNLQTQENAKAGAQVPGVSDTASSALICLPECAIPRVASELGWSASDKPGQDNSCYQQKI
# protocol: Inhibition of mouse 17β-HSD1 (recombinant, HEK293 lysate)
# Format: biochemical
# applied_conditions: read-out: Inhibition @ 1 μM m17β-HSD1
Please give a number only; it is taken to be in %.

Some solved entries appear below for comparison.
[
  {
    "compound": "COc1c(Cl)cc(-c2ccc(C(=O)c3c(F)ccc(OC(C)=O)c3F)s2)cc1Cn1ccnn1 [Compound 31a]",
    "inhibition at 1 µM, %": 20
  },
  {
    "compound": "O=C(c1ccc(-c2cccc(CO)c2)s1)c1cc(F)c(F)c(O)c1F",
    "inhibition at 1 µM, %": 13.8
  }
]

// inhibition at 1 µM lookup, key: O=C(c1ccc(-c2cccc(NS(=O)(=O)c3ccc(Br)cc3OC(F)(F)F)c2)s1)c1cc(F)c(F)c(O)c1F
68

Cited source: patent US9884839B2
